Attribution: PubChem BioAssay AID1918996

System: 349418-098-R-PDC complex spheroid growth
assayComment: Anticancer human tumor 349418-098-R-PDC patient-derived lung adenocarcinoma cell line growth inhibition [AhR]
studyConditions: curve of first compound; second compound 0.316 µM
readout: IC50

>>> print(df.to_string())
                                   compound                             assayedtarget  readout  experimentalresult
0  O=C(C=Cn1cnc(-c2cc(C(F)(F)F)cc(C(F)(F)F)c2)n1)NNc1cnccn1 + CC(CO)NC(=O)c1cc(-c2ccc(Cl)cc2)nn(-c2cnn(C)c2)c1=O  349418-098-R-PDC complex spheroid growth     IC50           < 9.49 nM
1  COc1ccc([C@@H](O)c2cc(-c3ncnc4cc(N5CCOCC5)ccc34)c(F)cc2Cl)nn1 + Cc1ccccc1N=Nc1ccc(NC(=O)c2ccnn2C)c(C)c1  349418-098-R-PDC complex spheroid growth     IC50              816 nM
2  Nc1ccn(C2OC(CO)C(O)C2(F)F)c(=O)n1 (stereo unspecified) + CC(CO)NC(=O)c1cc(-c2ccc(Cl)cc2)nn(-c2cnn(C)c2)c1=O  349418-098-R-PDC complex spheroid growth     IC50           < 31.6 nM
3  CCN(c1cc(-c2ccc(CN3CCOCC3)cc2)cc(C(=O)NCc2c(C)cc(C)[nH]c2=O)c1C)C1CCOCC1 + Cc1ccccc1N=Nc1ccc(NC(=O)c2ccnn2C)c(C)c1  349418-098-R-PDC complex spheroid growth     IC50           > 3000 nM
4  O=C(C=Cn1cnc(-c2cc(C(F)(F)F)cc(C(F)(F)F)c2)n1)NNc1cnccn1 + Cc1ccccc1N=Nc1ccc(NC(=O)c2ccnn2C)c(C)c1  349418-098-R-PDC complex spheroid growth     IC50           < 9.49 nM
5  CC(C)c1c(-c2ccccc2)nc2c(C#N)c[nH]n2c1=O + Cc1ccccc1N=Nc1ccc(NC(=O)c2ccnn2C)c(C)c1  349418-098-R-PDC complex spheroid growth     IC50          > 10000 nM

====

Test system: 349418-098-R-PDC complex spheroid growth
assayComment: Anticancer human tumor 349418-098-R-PDC cell line growth inhibition [AhR];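 further: spheroids exposed to agents for seven days before luminescence viability read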;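 on viability, T/C: spheroids also contain HUVEC endothelial cells and human MSC stroma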
studyConditions: second compound 0.316 µM; first compound 0.000949 µM; stronger effect = lower value
readout: viability, T/C (%)

compound	scaleUnit	experimentalResult
Nc1ncn(C2CC(O)C(CO)S2)c(=O)n1 (stereo unspecified) + Cc1ccccc1N=Nc1ccc(NC(=O)c2ccnn2C)c(C)c1	%	111
Nc1ncn(C2CC(O)C(CO)S2)c(=O)n1 (stereo unspecified) + CC(CO)NC(=O)c1cc(-c2ccc(Cl)cc2)nn(-c2cnn(C)c2)c1=O	%	72.6
CC(C)CC(NC(=O)C(Cc1ccccc1)NC(=O)c1cnccn1)B(O)O (stereo unspecified) + Cc1ccccc1N=Nc1ccc(NC(=O)c2ccnn2C)c(C)c1	%	48.2
CC(C)CC(NC(=O)C(Cc1ccccc1)NC(=O)c1cnccn1)B(O)O (stereo unspecified) + CC(CO)NC(=O)c1cc(-c2ccc(Cl)cc2)nn(-c2cnn(C)c2)c1=O	%	24.2
CC(C)CC(NC(=O)C(Cc1ccccc1)NC(=O)c1cnccn1)B(O)O (stereo unspecified) + Cc1cncc(-c2nc(NCCc3c[nH]c4ccccc34)c3ncn(C(C)C)c3n2)c1	%	64.6
CCc1c2c(nc3ccc(O)cc13)-c1cc3c(c(=O)n1C2)COC(=O)[C@]3(O)CC + CC(CO)NC(=O)c1cc(-c2ccc(Cl)cc2)nn(-c2cnn(C)c2)c1=O	%	34.2

====

Tested on: 349418-098-R-PDC complex spheroid growth
assayComment: Anticancer human tumor 349418-098-R-PDC cell line growth inhibition [AhR];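 further: spheroids exposed to agents for seven days before luminescence viability read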;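 on viability, T/C: spheroids also contain HUVEC endothelial cells and human MSC stroma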
studyConditions: second compound 10 µM; first compound 0.00949 µM; stronger effect = lower value
Measured viability, T/C by item
readout: viability, T/C

compound	readout	experimentalResult
CC(C)CC(NC(=O)C(Cc1ccccc1)NC(=O)c1cnccn1)B(O)O (stereo not given) + CC(CO)NC(=O)c1cc(-c2ccc(Cl)cc2)nn(-c2cnn(C)c2)c1=O	viability, T/C	2.77%
CC(C)CC(NC(=O)C(Cc1ccccc1)NC(=O)c1cnccn1)B(O)O (stereo not given) + Cc1cncc(-c2nc(NCCc3c[nH]c4ccccc34)c3ncn(C(C)C)c3n2)c1	viability, T/C	0.23%
CCc1c2c(nc3ccc(O)cc13)-c1cc3c(c(=O)n1C2)COC(=O)[C@]3(O)CC + CC(CO)NC(=O)c1cc(-c2ccc(Cl)cc2)nn(-c2cnn(C)c2)c1=O	viability, T/C	12.2%
O=C(C=Cn1cnc(-c2cc(C(F)(F)F)cc(C(F)(F)F)c2)n1)NNc1cnccn1 + Cc1cncc(-c2nc(NCCc3c[nH]c4ccccc34)c3ncn(C(C)C)c3n2)c1	viability, T/C	3.16%
CC(C)CC(NC(=O)C(Cc1ccccc1)NC(=O)c1cnccn1)B(O)O (stereo not given) + Cc1ccccc1N=Nc1ccc(NC(=O)c2ccnn2C)c(C)c1	viability, T/C	2.75%

====

Measured viability, T/C by item
Tested on: 349418-098-R-PDC complex spheroid growth
assayComment: Anticancer human tumor 349418-098-R-PDC cell line growth inhibition [AhR];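 further: spheroids exposed to agents for seven days before luminescence viability read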;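 on viability, T/C: spheroids also contain HUVEC endothelial cells and human MSC stroma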
studyConditions: second compound 1 µM; first compound 10 µM; stronger effect = lower value
readout: viability, T/C (%)

molecule	scaleUnit	experimentalResult
COc1cc(Nc2ncc3c(n2)-c2ccc(Cl)cc2C(c2c(F)cccc2OC)=NC3)ccc1C(=O)O + Cc1cncc(-c2nc(NCCc3c[nH]c4ccccc34)c3ncn(C(C)C)c3n2)c1	%	44.8
CC1(C)CCC(CN2CCN(c3ccc(C(=O)NS(=O)(=O)c4ccc(NCC5CCOCC5)c([N+](=O)[O-])c4)c(Oc4cnc5[nH]ccc5c4)c3)CC2)=C(c2ccc(Cl)cc2)C1 + Cc1cncc(-c2nc(NCCc3c[nH]c4ccccc34)c3ncn(C(C)C)c3n2)c1	%	86.4
CC(C)c1c(-c2ccccc2)nc2c(C#N)c[nH]n2c1=O + Cc1ccccc1N=Nc1ccc(NC(=O)c2ccnn2C)c(C)c1	%	58.7
COc1cccc2c1C(=O)c1c(O)c3c(c(O)c1C2=O)CC(O)(C(=O)CO)CC3OC1CC(N)C(O)C(C)O1 (stereo unspecified) + Cc1cncc(-c2nc(NCCc3c[nH]c4ccccc34)c3ncn(C(C)C)c3n2)c1	%	3.54
COc1ccc([C@@H](O)c2cc(-c3ncnc4cc(N5CCOCC5)ccc34)c(F)cc2Cl)nn1 + Cc1cncc(-c2nc(NCCc3c[nH]c4ccccc34)c3ncn(C(C)C)c3n2)c1	%	19.4
O=C(c1cc(Cc2n[nH]c(=O)c3ccccc23)ccc1F)N1CCN(C(=O)C2CC2)CC1 + CC(CO)NC(=O)c1cc(-c2ccc(Cl)cc2)nn(-c2cnn(C)c2)c1=O	%	44.8

====

Tested on: 349418-098-R-PDC complex spheroid growth
assayComment: Anticancer human tumor 349418-098-R-PDC cell line growth inhibition [AhR]; active = viability on the fitted dose curve at most 10% of control; inactive = the rest;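 further: spheroids exposed to agents for seven days before luminescence viability read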
studyConditions: second compound 0.1 µM; first compound 0.00949 µM
Outcomes: t = active, f = inactive

compound	group
Nc1ncn(C2CC(O)C(CO)S2)c(=O)n1 (stereo not given) + Cc1cncc(-c2nc(NCCc3c[nH]c4ccccc34)c3ncn(C(C)C)c3n2)c1	f
CCN(c1cc(-c2ccc(CN3CCOCC3)cc2)cc(C(=O)NCc2c(C)cc(C)[nH]c2=O)c1C)C1CCOCC1 + CC(CO)NC(=O)c1cc(-c2ccc(Cl)cc2)nn(-c2cnn(C)c2)c1=O	f
CCc1c2c(nc3ccc(O)cc13)-c1cc3c(c(=O)n1C2)COC(=O)[C@]3(O)CC + Cc1ccccc1N=Nc1ccc(NC(=O)c2ccnn2C)c(C)c1	f
CC(C)CC(NC(=O)C(Cc1ccccc1)NC(=O)c1cnccn1)B(O)O (stereo not given) + Cc1cncc(-c2nc(NCCc3c[nH]c4ccccc34)c3ncn(C(C)C)c3n2)c1	t
CCc1c2c(nc3ccc(O)cc13)-c1cc3c(c(=O)n1C2)COC(=O)[C@]3(O)CC + Cc1cncc(-c2nc(NCCc3c[nH]c4ccccc34)c3ncn(C(C)C)c3n2)c1	t

====

Tested on: 349418-098-R-PDC complex spheroid growth
assayComment: Anticancer human tumor 349418-098-R-PDC cell line growth inhibition [AhR];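 further: spheroids exposed to agents for seven days before luminescence viability read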
studyConditions: curve of first compound; second compound 0.316 µM
pIC50: −log10 of the molar value.
Measured pIC50 by item

compound	pIC50
CC1(C)CCC(CN2CCN(c3ccc(C(=O)NS(=O)(=O)c4ccc(NCC5CCOCC5)c([N+](=O)[O-])c4)c(Oc4cnc5[nH]ccc5c4)c3)CC2)=C(c2ccc(Cl)cc2)C1 + Cc1cncc(-c2nc(NCCc3c[nH]c4ccccc34)c3ncn(C(C)C)c3n2)c1	< 5.00
COc1cccc2c1C(=O)c1c(O)c3c(c(O)c1C2=O)CC(O)(C(=O)CO)CC3OC1CC(N)C(O)C(C)O1 (stereo not drawn) + CC(CO)NC(=O)c1cc(-c2ccc(Cl)cc2)nn(-c2cnn(C)c2)c1=O	> 7.50
CC(C)CC(NC(=O)C(Cc1ccccc1)NC(=O)c1cnccn1)B(O)O (stereo not drawn) + Cc1ccccc1N=Nc1ccc(NC(=O)c2ccnn2C)c(C)c1	> 9.02
O=C(C=Cc1cccc(S(=O)(=O)Nc2ccccc2)c1)NO + Cc1cncc(-c2nc(NCCc3c[nH]c4ccccc34)c3ncn(C(C)C)c3n2)c1	6.28
COc1ccc([C@@H](O)c2cc(-c3ncnc4cc(N5CCOCC5)ccc34)c(F)cc2Cl)nn1 + Cc1cncc(-c2nc(NCCc3c[nH]c4ccccc34)c3ncn(C(C)C)c3n2)c1	5.40
Nc1ccn(C2OC(CO)C(O)C2(F)F)c(=O)n1 (stereo not drawn) + Cc1ccccc1N=Nc1ccc(NC(=O)c2ccnn2C)c(C)c1	> 7.50
Nc1ncn(C2CC(O)C(CO)S2)c(=O)n1 (stereo not drawn) + CC(CO)NC(=O)c1cc(-c2ccc(Cl)cc2)nn(-c2cnn(C)c2)c1=O	7.49
CC(C)c1c(-c2ccccc2)nc2c(C#N)c[nH]n2c1=O + CC(CO)NC(=O)c1cc(-c2ccc(Cl)cc2)nn(-c2cnn(C)c2)c1=O	< 5.00
